Hello, the source for this data is patent US8889876B2, in case you need it.

Tested on: Jurkat E6-1 human T-cell lymphoma
Test: CCK-8 proliferation inhibition, Jurkat E6-1
Format: cell-based
Settings: Homo sapiens, Jurkat E6.1, 10 μM
Method: Detecting the inhibition rate of the compound concentrations of 100 μM and 10 μM to Hut78 T-cell Leukemia cell, Jurkat E6-1 human T-cell lymphoma, PANC-1 human pancreatic cancer cells, A549 human lung cancer cells, K562 human chronic myeloid leukemia cells, Hep3B2.1-7 human liver cancer cells, MDA-MB-435s human breast cancer cells, Colo320 human rectal cancer cells and PC-3 human prostate cancer using CCK-8 method.
Quick rule for you: inhibition at 10 µM at 20% or higher means yes, lower means no.

Exercise: Is it the case that Nc1cnccc1NC(=O)c1ccc(CNC(=O)OCc2ccc(F)cc2)cc1 [V-20] has inhibition at 10 µM reaching or exceeding 20%?
Key: yes

Exercise: Determine whether measured inhibition at 10 µM meets or exceeds 20% for Nc1ncccc1NC(=O)c1ccc(CNC(=O)/C=C/c2ccc([N+](=O)[O-])cc2)cc1 [V-36]
Key: no

Exercise: Reported inhibition at 10 µM reaches at least 20% for Nc1cnccc1NC(=O)c1ccc(CNC(=O)/C=C/c2cccnc2)cc1 [V-43] ?
Key: yes

Exercise: Identify whether the reported inhibition at 10 µM of the following compound is 20% or greater: COc1cccc(COC(=O)NCc2ccc(C(=O)Nc3ccncc3N)cc2)c1 [V-95]
Key: yes

Exercise: Identify whether the reported inhibition at 10 µM of the following compound is 20% or greater: Nc1cnccc1NC(=O)c1ccc(CNC(=O)/C=C/c2ccccc2)cc1 [V-26]
Key: yes
